Where these numbers come from: ChEMBL document CHEMBL1144524

The entries below come with measured FI5 values attached.
# ASSAYED TARGET: Androgen receptor (Homo sapiens)
# CONDITION CONTEXT: HeLa
# Description: Agonist activity at androgen receptor expressed in HeLa cells assessed as effect on dihydrotestosterone-induced transcriptional activity by reporter gene assay
Write the answer as a number in nM, unit excluded.

Here's what some known entries look like.
| MOLECULE | ASSAY METRIC | OBSERVED MEASUREMENT |
| --- | --- | --- |
| C[C@]12CCC(=O)C[C@@H]1CC(CCCCCCCC(N)=O)[C@@H]1[C@@H]2CC[C@]2(C)[C@@H](O)CC[C@@H]12 (stereo not given in full) | FI5 | 2400 |
| CCCCN(C)C(=O)CCCCCCCCC[C@@H]1CC2CC(=O)CC[C@]2(C)[C@H]2CC[C@]3(C)[C@@H](O)CC[C@H]3[C@H]12 (stereo not given in full) | FI5 | 570 |
| CCCCN(C)C(=O)CCCCCCC[C@@H]1CC2CC(=O)CC[C@]2(C)[C@H]2CC[C@]3(C)[C@@H](O)CC[C@H]3[C@H]12 (stereo not given in full) | FI5 | 280 |

Item: C[C@]12CC[C@H]3[C@@H]([C@H](CCCCCCC[S+]([O-])CCCC(F)(F)C(F)(F)F)CC4CC(=O)CC[C@@]43C)[C@@H]1CC[C@@H]2O (stereo not given in full) | FI5: 200

====

# ASSAYED TARGET: Androgen receptor (Homo sapiens, UniProt P10275)
# Sequence (P10275 whole entry): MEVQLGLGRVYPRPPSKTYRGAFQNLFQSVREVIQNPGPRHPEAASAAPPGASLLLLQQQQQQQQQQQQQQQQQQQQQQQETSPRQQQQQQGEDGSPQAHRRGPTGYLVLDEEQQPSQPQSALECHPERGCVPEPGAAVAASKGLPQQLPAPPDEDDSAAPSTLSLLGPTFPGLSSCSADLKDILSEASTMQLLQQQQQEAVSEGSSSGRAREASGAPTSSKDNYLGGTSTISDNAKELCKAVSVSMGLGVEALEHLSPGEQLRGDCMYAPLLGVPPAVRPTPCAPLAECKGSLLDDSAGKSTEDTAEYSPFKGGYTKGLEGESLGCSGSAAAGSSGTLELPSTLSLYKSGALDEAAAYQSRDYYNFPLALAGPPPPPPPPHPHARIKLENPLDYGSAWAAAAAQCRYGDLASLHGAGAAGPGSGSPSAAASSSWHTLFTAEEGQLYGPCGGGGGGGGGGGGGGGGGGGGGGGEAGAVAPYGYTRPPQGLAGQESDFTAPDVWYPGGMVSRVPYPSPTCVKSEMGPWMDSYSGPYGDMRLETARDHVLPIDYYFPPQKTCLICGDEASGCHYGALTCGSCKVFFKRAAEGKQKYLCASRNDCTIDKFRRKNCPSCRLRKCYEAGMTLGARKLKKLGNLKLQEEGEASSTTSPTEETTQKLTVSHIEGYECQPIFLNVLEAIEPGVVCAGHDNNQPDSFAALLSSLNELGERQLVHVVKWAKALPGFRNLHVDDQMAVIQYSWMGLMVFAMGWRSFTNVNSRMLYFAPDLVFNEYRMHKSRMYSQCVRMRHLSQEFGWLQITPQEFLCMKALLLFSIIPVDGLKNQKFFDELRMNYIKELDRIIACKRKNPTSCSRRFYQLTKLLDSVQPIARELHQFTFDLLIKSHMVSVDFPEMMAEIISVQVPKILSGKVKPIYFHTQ
ASSAY METRIC: pIC50
// field semantics: pIC50 = negative decimal log of concentration (mol/L)

| COMPOUND | pIC50 |
| --- | --- |
| CN(C)C(=O)CCCCCCCC1C[C@H]2CC(=O)CC[C@]2(C)[C@H]2CC[C@]3(C)[C@@H](O)CC[C@H]3[C@H]12 (stereo partly drawn) | 6.72 |

The recorded pIC50 with Androgen receptor (Homo sapiens, UniProt P10275) for CCCN(C)C(=O)CCCCCCCC1C[C@H]2CC(=O)CC[C@]2(C)[C@H]2CC[C@]3(C)[C@@H](O)CC[C@H]3[C@H]12 (stereo partly drawn) was 5.96

// compound CCN(C)C(=O)CCCCCCCC1C[C@H]2CC(=O)CC[C@]2(C)[C@H]2CC[C@]3(C)[C@@H](O)CC[C@H]3[C@H]12 (stereo partly drawn) , assay Androgen receptor (Homo sapiens, UniProt P10275), pIC50 value: 6.38

====

# FI5 listing for each entry below
# ASSAYED TARGET: UniProt P10275
# CONDITION CONTEXT: HeLa

| COMPOUND | FI5 |
| --- | --- |
| CCN(CC)C(=O)CCCCCCCC1C[C@H]2CC(=O)CC[C@]2(C)[C@H]2CC[C@]3(C)[C@@H](O)CC[C@H]3[C@H]12 (stereo partly specified) | > 10 µM |

# input for lookup
Record for C[C@]12CCC(=O)C[C@@H]1CC(CCCCCCCC(=O)N1CCCC1)[C@@H]1[C@@H]2CC[C@]2(C)[C@@H](O)CC[C@@H]12 (stereo partly specified) under target or system UniProt P10275: FI5 reported as > 10 µM
